- System: Pseudomonas aeruginosa
- METHOD NOTES: Minimum Inhibitory Concentration (MIC) test, two fold serial dilutions
- Type: cell-based
- STATED CONDITIONS: Trypticase Soy Broth (TSB); unit assumed
QUANTITY MEASURED: MIC P. aeruginosa TSB (µg/mL)
Reply numerically in µg/mL, unit not repeated.

Completed entries (count: 3):
INSERT INTO measurements (entry_smiles, value_observed) VALUES
  ('O=C(Nc1ccc(Cl)cc1)ON=C(Br)Br', 63),
  ('Cc1ccc(NC(=O)ON=C(Br)Br)cc1', 16),
  ('CCCCCCNC(=O)ON=C(Br)Br', 125);

Next, consider the following compound.
Request: For the compound CCCCNC(=O)ON=C(Br)Br , report MIC P. aeruginosa TSB.
Response: 63
